The measurements presented in this section are drawn from patent US4537886A.

- Tested on: E. coli NCTC 10418
- method: MIC against E. coli NCTC 10418
- Format: cell-based
- cond: Escherichia coli, NCTC10418; read-out: MIC against E. coli NCTC 10418
Structures can show the parent of a compound that is named as a salt.

{"columns": ["compound", "result-unit", "MIC"],
 "data": [
  ["CC1(C)S[C@@H]2[C@H](NC(=O)[C@H](NC(=O)c3cn(-c4ccc(O)cc4)[nH]c3=O)c3ccccc3)C(=O)N2[C@H]1C(=O)O [Example 15, (sodium salt)]", "µg/mL", 2],
  ["CC(=O)OCC1=C(C(=O)O)N2C(=O)[C@@H](NC(=O)[C@H](NC(=O)c3cn(-c4ccc(N)cc4)[nH]c3=O)c3ccccc3)[C@H]2SC1 [Example 19, sodium salt]", "µg/mL", 5],
  ["CC1(C)S[C@@H]2[C@H](NC(=O)[C@H](NC(=O)c3cn(-c4ccc(N)cc4)[nH]c3=O)c3ccccc3)C(=O)N2[C@H]1C(=O)O [Example 12, (sodium salt)]", "µg/mL", 5],
  ["Cc1c(C(=O)N[C@@H](C(=O)N[C@@H]2C(=O)N3[C@@H]2SC(C)(C)[C@@H]3C(=O)O)c2ccccc2)c(=O)n(-c2ccc(Br)cc2)n1C [Example 10, (sodium salt)]", "µg/mL", 5],
  ["CC1(C)S[C@@H]2[C@H](NC(=O)[C@H](NC(=O)c3cn(-c4ccc(Br)cc4)[nH]c3=O)c3ccccc3)C(=O)N2[C@H]1C(=O)O [Example 17, sodium salt]", "µg/mL", 1]
]}

---

- Test system: E. coli NCTC 10418
- method: MIC against E. coli NCTC 10418
- Type: cell-based
- cond: Escherichia coli, NCTC10418; read-out: MIC against E. coli NCTC 10418
Counter-ions that a name gives are not always drawn.
Reported MIC values follow for various compounds
measured-endpoint: MIC (µg/mL)

{"columns": ["compound", "assay-target", "result-unit", "experimental-value"],
 "data": [
  ["CC1(C)S[C@@H]2[C@H](NC(=O)[C@H](NC(=O)c3cn(-c4ccc([N+](=O)[O-])cc4)[nH]c3=O)c3ccccc3)C(=O)N2[C@H]1C(=O)O [Example 11, (sodium salt)]", "E. coli NCTC 10418", "µg/mL", 2.5],
  ["CC1(C)S[C@@H]2[C@H](NC(=O)[C@H](NC(=O)c3cn(-c4ccc([N+](=O)[O-])cc4)[nH]c3=O)c3ccc(O)cc3)C(=O)N2[C@H]1C(=O)O [Example 13, (sodium salt)]", "E. coli NCTC 10418", "µg/mL", 5],
  ["Cc1c(C(=O)N[C@@H](C(=O)N[C@@H]2C(=O)N3[C@@H]2SC(C)(C)[C@@H]3C(=O)O)c2ccccc2)c(=O)[nH]n1-c1ccccc1 [Example 16, sodium salt]", "E. coli NCTC 10418", "µg/mL", 25]
]}

---

- System: E. coli NCTC 10418
- method: MIC against E. coli NCTC 10418
- Type: cell-based
- cond: Escherichia coli, NCTC10418; read-out: MIC against E. coli NCTC 10418
Where a name gives a salt, the structure may show the parent alone.
Reported MIC values follow for various molecules

{"columns": ["molecule", "MIC (µg/mL)"],
 "data": [
  ["Cn1cc(C(=O)N[C@@H](C(=O)N[C@@H]2C(=O)N3[C@@H]2SC(C)(C)[C@@H]3C(=O)O)c2ccccc2)c(=O)n1-c1ccccc1 [Example 8, (sodium salt)]", 10],
  ["COc1nn(-c2ccc(N)cc2)cc1C(=O)N[C@@H](C(=O)N[C@@H]1C(=O)N2[C@@H]1SC(C)(C)[C@@H]2C(=O)O)c1ccccc1 [Example 22, sodium salt]", 16],
  ["COc1c(C(=O)N[C@@H](C(=O)N[C@@H]2C(=O)N3[C@@H]2SC(C)(C)[C@@H]3C(=O)O)c2ccccc2)cnn1-c1ccccc1 [Example 5, sodium salt]", 12.5]
]}
